Literature-derived Kd for Somatostatin receptor type 5 (Homo sapiens, UniProt P35346) follows.
QUANTITY KIND: Kd (µM)

- MOLECULE: "Cc1nc2cc(C[C@H](C)CN3C[C@@H]4CCCC[C@@H]4[C@H](C(=O)N4CCN(c5ccc(F)c(F)c5)CC4)C3)ccc2o1"
  QUANTITY KIND: "Kd"
  VALUE: 1.1

[a] COc1ccc(C[C@@H](C)CN2C[C@H]3CCCC[C@H]3[C@@H](C(=O)N3CCN(c4ccc(F)c(F)c4)CC3)C2)cn1
[b] COc1ccc(C[C@H](C)CN2C[C@@H]3CCCC[C@@H]3[C@H](C(=O)N3CCN(c4ccc(F)c(F)c4)CC3)C2)cn1.O=C(O)/C=C/C(=O)O
[c] CN[C@H](Cc1ccccc1)C(=O)N[C@H]1CSSC[C@@H](C(=O)N[C@H](C(N)=O)[C@@H](C)O)NC(=O)[C@H]([C@@H](C)O)NC(=O)[C@H](CCCCN)NC(=O)[C@@H](Cc2c[nH]c3ccccc23)NC(=O)[C@H](Cc2ccccc2)NC1=O
[d] CN(CCC(=O)N1CCN(c2ccc(F)c(F)c2)CC1)CCC1c2ccccc2Oc2ccccc21
Query block: Parameters: sort_field (Kd), sort_dir (desc). Please respond with the labels ordered as the question requires.
Result block: a, d, b, c
(a: 91.2 µM, d: 14.5 µM, b: 1.12 µM, c: 0.00489 µM)
